target: human CD36 (on HEK 293 or SCC25 cells) (human, UniProt P16671 2-472); test: cell-based or functional assay
Sequence (P16671 2-472 limits assumed): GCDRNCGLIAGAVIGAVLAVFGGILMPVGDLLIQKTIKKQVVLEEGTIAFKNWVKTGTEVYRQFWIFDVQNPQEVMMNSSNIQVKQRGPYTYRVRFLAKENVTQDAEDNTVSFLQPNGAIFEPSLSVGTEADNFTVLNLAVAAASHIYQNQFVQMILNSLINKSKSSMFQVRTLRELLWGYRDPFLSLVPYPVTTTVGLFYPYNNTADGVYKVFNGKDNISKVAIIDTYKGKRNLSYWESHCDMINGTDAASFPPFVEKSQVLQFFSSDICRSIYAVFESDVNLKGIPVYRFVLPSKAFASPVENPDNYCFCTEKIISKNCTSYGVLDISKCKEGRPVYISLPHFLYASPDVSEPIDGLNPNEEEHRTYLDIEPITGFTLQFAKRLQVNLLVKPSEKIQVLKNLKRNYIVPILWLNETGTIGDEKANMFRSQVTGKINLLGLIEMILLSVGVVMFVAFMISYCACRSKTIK
resultType: IC50 of fatty acid uptake inhibition (BODIPY FL C16, HEK hCD36 cells) (nM)
Give your result in nM as a bare value.

Entry under test: 14G04 (antibody, human IgG1, V domains shown, Chimeric: mouse variable regions on human IgG1 LALA (L234A/L235A); also called 014G04) VH: QVQLQQSGAELVRSGASVRLSCTASGFNIKDYYIHWVKQRPEQGLEWIGWIDPENGDTEYAPRFQDKATMTADTSSNTAYLQLSSLTSEDTAVYYCNGWLLSGNGMDYWGQGTSVTVSS VL: DIVMTQSHKFMSTSVGDRVSITCKASQDVGTAVAWYQQKPGQSPKLLIYWASTRHTGVPDRFTGSGSGTDFTLTISNVQSEDLADYFCQQYSSYPTFGGGTKLEIK . Its IC50 of fatty acid uptake inhibition (BODIPY FL C16, HEK hCD36 cells) was 0.13

# IC50 of fatty acid uptake inhibition (BODIPY FL C16, HEK hCD36 cells) (binder: 11G04 (antibody, human IgG1, V domains shown, Chimeric: mouse variable regions on human IgG1 LALA (L234A/L235A); also called 011G04) VH: EVQLQQSGAELVRPGASVTLSCKASGYRFSDYEMQWVKQTPVHGLEWIGGIDPETGGIAYNQKFKVKATLTADKSSSTAFMELRSLTSEDSAVYYCTRKLDFDYWGQGTTLTVSS VL: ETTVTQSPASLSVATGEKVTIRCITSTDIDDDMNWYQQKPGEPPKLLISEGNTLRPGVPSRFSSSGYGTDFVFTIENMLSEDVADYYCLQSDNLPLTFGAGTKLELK ) is 0.07

IC50 of fatty acid uptake inhibition (BODIPY FL C16, HEK hCD36 cells) for 10G04 (antibody, human IgG1, V domains shown, Chimeric: mouse variable regions on human IgG1 LALA (L234A/L235A); also called 010G04) VH: DVQLQESGPELVKPGASVKISCKASGYTFTDYNMHWVKQSHGKSLEWIGYIYPYNGGTGYNQKFKSKATLTVDNSSSTAYMELRSLTSEDSAVYYCARDGGYDVYFDYWGQGTTLTVSS VL: DVVMTQTPLSLPVSLGDQASISCRSSQSLVHSNGNTYLHWYLQKPGQSPKLLIYKVSNRFSGVPDRFSGSGSGTDFTLKISRVEAEDLGVYYCFQGSHVPWTFGGGTKLEIK is 33

Short answer for 13G04 (antibody, human IgG1, V domains shown, Chimeric: mouse variable regions on human IgG1 LALA (L234A/L235A); also called 013G04) VH: QVQLQQSGAELVRPGASVKLSCKASGYTFTSYWMNWVKQRPGQGLEWIGMIDPSDNETHYNQMFKDKATLTVDKSSSTAYMQLSSLTSEDSAVYYCARSDYGNGYSFYLDVWGAGTTVTVSS VL: DIVLTQSPASLAVSLGQRATISCRASESVDSYGNSFMHWYQQKPGQPPKLLIYRASNLESGIPARFSGSGSRTDFTLTINPVEADDVATYYCQQSNEDPWTFGGGTKLEIK : IC50 of fatty acid uptake inhibition (BODIPY FL C16, HEK hCD36 cells) was 0.2
